A collection of molecules and their measured EC50
system: SW-1736; assay: Cytotoxicity against human SW1736 cells assessed as reduction in cell viability after 96 hrs by SRB assay; format: functional, cell-based; settings: SW-1736, 96 h
attribute.measured: EC50 (µM)

* CC(=O)OC[C@@]1(C)[C@@H]2CC[C@]3(C)[C@H](CC=C4[C@@H]5CC(C)(C)CC[C@]5(C(=O)NCc5cn(Cc6ccccc6Br)nn5)CC[C@]43C)[C@@]2(C)CC[C@@H]1OC(C)=O | 2.3
* CC(=O)OC[C@@]1(C)[C@@H]2CC[C@]3(C)[C@H](CC=C4[C@@H]5CC(C)(C)CC[C@]5(C(=O)NCCc5ccccn5)CC[C@]43C)[C@@]2(C)CC[C@@H]1OC(C)=O | 3.4
* CC(=O)OC[C@@]1(C)[C@@H]2CC[C@]3(C)[C@H](CC=C4[C@@H]5CC(C)(C)CC[C@]5(C(=O)N5CCCCC5)CC[C@]43C)[C@@]2(C)CC[C@@H]1OC(C)=O | 7.1
* CC(=O)OC[C@@]1(C)[C@@H]2CC[C@]3(C)[C@H](CC=C4[C@@H]5CC(C)(C)CC[C@]5(C(=O)NCCN5CCCCC5)CC[C@]43C)[C@@]2(C)CC[C@@H]1OC(C)=O | 4.7
* CC(=O)OC[C@@]1(C)[C@@H]2CC[C@]3(C)[C@H](CC=C4[C@@H]5CC(C)(C)CC[C@]5(C(=O)NCc5cn(Cc6ccccc6F)nn5)CC[C@]43C)[C@@]2(C)CC[C@@H]1OC(C)=O | 4.7
* COC(=O)CNC(=O)[C@]12CCC(C)(C)C[C@H]1C1=CC[C@@H]3[C@@]4(C)CC[C@H](OC(C)=O)[C@@](C)(COC(C)=O)[C@@H]4CC[C@@]3(C)[C@]1(C)CC2 | 4.8
